assay text: qHTS assay to identify small molecule agonists of the estrogen related receptor (ERR) signaling pathway from Tox21 library (AID 1224849); also: % is scaled to controls: 0 for no effect and ±100 for the full control effect; nearly all actives have a fitted effect of over 15% in size
setup conditions: ERR reporter cell line, ONE-Glo luciferase, 18 h; at 92.4 µM (top of the series) unless noted
Procedure: National Center for Advancing Translational Sciences [NCATS] NIH Chemical Genomics Center [NCGC] U.S. Environmental Protection Agency [EPA] National Institutes of Environmental Health Sciences [NIEHS] National Toxicology Program [NTP] […] The ERR cells were dispensed at 2,000 cells/5 ul/well in 1536-well white plates using a Multidrop dispenser. […] After 30-minute incubation at room temperature, the luminescence intensity in the plates was measured using a ViewLux plate reader.
Calls of active or inactive are those of the source. Calls follow the shape of the full dose curve.

{"columns": ["compound", "activity change, positive = activation"],
 "data": [
  ["COc1ccc(CN2CCNCC2)c(OC)c1OC", "-10% [at 42.5 µM] (inactive)"],
  ["CCC(C)(C#N)N=NC(C)(C#N)CC (stereo unspecified)", "3.15% (inactive)"],
  ["CNC(=O)Oc1cc(C)c(N(C)C)c(C)c1", "4.59% (inactive)"],
  ["CNC(=O)Oc1ccccc1C(C)C", "1.9% (inactive)"],
  ["Cl/C=C/CCl", "5.39% (inactive)"],
  ["CCCCS(=O)(=O)Cl", "-4.82% (inactive)"],
  ["CC[C@@H](CO)NC(=O)[C@@H]1C=C2c3cccc4c3c(cn4C)C[C@H]2N(C)C1", "0.637% [at 42.5 µM] (inactive)"],
  ["ClC(Cl)(Cl)Cl", "-3.58% (inactive)"],
  ["CCSC(=O)Cl", "13.4% (inactive)"],
  ["Cc1ccc(S(=O)(=O)N[C@@H](CCCCN)C(=O)CCl)cc1", "0.318% [at 42.5 µM] (inactive)"],
  ["CCCC[N+](=O)[O-]", "-0.684% (inactive)"]
]}

* * *

assay text: qHTS RealTime-Glo MT Cell Viability Assay in HEK293 cells - 32 hour (AID 1224868); also: nearly all actives have a fitted effect of over 50% in size
setup conditions: RealTime-Glo luminescence; series mostly up to 76.8 µM
Results filed as inconclusive are left out. Active and inactive are the calls of the source. The call rests on the fitted dose curve; in most records, active means well fitted cell-killing curve with a large enough effect in the repeat runs; inconclusive means weak or mixed curves, or effect the other way; inactive means flat fitted curve, though single readings scatter.
Outcome codes: active, inactive

{"columns": ["compound", "category label"],
 "data": [
  ["COc1cccc(C=O)c1", "inactive"],
  ["Cn1c(N)nc2c3cccnc3ccc21", "inactive"],
  ["CCC1(c2ccccc2)C(=O)N(COC)C(=O)N(COC)C1=O", "inactive"],
  ["CCC1(c2ccccc2)CCC(=O)NC1=O (stereo not given)", "inactive"],
  ["CS(=O)(=O)c1ccc(C(=O)C2C(=O)CCCC2=O)c(Cl)c1COCC(F)(F)F", "inactive"],
  ["CCNc1nc(NCC)nc(SC)n1", "inactive"],
  ["CNC(=O)Oc1ccccc1C(C)C", "inactive"],
  ["CCCOc1nn(C(=O)NS(=O)(=O)c2ccccc2C(=O)OC)c(=O)n1C", "inactive"],
  ["O=C(Cl)OCc1ccccc1", "inactive"],
  ["C=CCCC#N", "inactive"],
  ["C1CN2CCC1CC2", "inactive"],
  ["CC(C)[C@]12CC(=O)[C@H](C)[C@H]1C2", "inactive"],
  ["ClCOCCl", "inactive"],
  ["O=C(O)CBr", "inactive"],
  ["CCC(C)(C#N)N=NC(C)(C#N)CC (stereo not given)", "inactive"],
  ["O=C(Cl)c1ccccc1", "inactive"],
  ["CC(=O)CN(CC(C)=O)N=O", "inactive"],
  ["[O-][Br+2]([O-])O", "inactive"],
  ["CCc1ccc(C2CCNCC2)cc1", "inactive"],
  ["CC(C)(C)C(=O)C(Cl)Cl", "inactive"],
  ["COP(=O)(O)OC", "inactive"],
  ["N#CN=C1SCCN1Cc1ccc(Cl)nc1", "inactive"],
  ["Cc1ccc(S(=O)(=O)N[C@@H](CCCCN)C(=O)CCl)cc1", "inactive"],
  ["C[C@H]1CCCC(=O)CCC/C=C/c2cc(O)cc(O)c2C(=O)O1", "active"],
  ["CC(C)c1ccc(O)cc1", "inactive"],
  ["CON(C)C(=O)Nc1ccc(Br)cc1", "inactive"],
  ["CCC(CC)(CNC(=O)CCCO)c1cccc(OC)c1", "inactive"],
  ["Cc1cccc2sc3nncn3c12", "inactive"],
  ["CS(=O)(=O)Cl", "inactive"],
  ["CCOC(=O)CC(SP(=S)(OC)OC)C(=O)OCC (stereo not given)", "inactive"],
  ["CC(C)(C1CCC(O)CC1)C1CCC(O)CC1 (stereo not given)", "inactive"],
  ["NC1(c2ccccc2)CCCCC1", "inactive"],
  ["CC(C)NCC(O)c1ccc([N+](=O)[O-])cc1 (stereo not given)", "inactive"],
  ["S=C=S", "inactive"],
  ["CCCC(C)C1(CC)C(=O)N=C(S)NC1=O (stereo not given)", "inactive"],
  ["CCC(=O)OC1(c2ccccc2)CCN(C)CC1", "inactive"],
  ["Cn1c(CCCC(=O)O)nc2cc(N(CCCl)CCCl)ccc21", "inactive"],
  ["C=CCN1CC[C@]23CCCC[C@H]2[C@H]1Cc1ccc(O)cc13", "inactive"],
  ["CC[C@H](N)c1ccccc1", "inactive"],
  ["CCCOC(=O)c1cncn1C(C)c1ccccc1 (stereo not given)", "inactive"],
  ["CCCCCCCCBr", "inactive"],
  ["O=C(Cl)C(Cl)Cl", "inactive"],
  ["CC(Cc1ccccc1)NCCn1cnc2c1c(=O)n(C)c(=O)n2C (stereo not given)", "active"],
  ["C[C@H](N)C(=O)c1ccccc1", "inactive"],
  ["COC[C@@H](NC(C)=O)C(=O)NCc1ccccc1", "inactive"],
  ["C/C(=N\\NC(=O)Nc1cc(F)cc(F)c1)c1ncccc1C(=O)O", "inactive"],
  ["C/C=C/CC#N", "inactive"],
  ["O=c1[nH]c2ccccc2n1C1CCNCC1", "inactive"],
  ["CCN(CC)CCOC(=O)C(O)(c1ccccc1)c1ccccc1", "inactive"],
  ["Clc1nc(Cl)nc(Nc2ccccc2Cl)n1", "inactive"],
  ["BrCc1ccc(Br)cc1", "inactive"],
  ["CCCN1CCC[C@@H]2Cc3nc(N)ncc3C[C@H]21", "inactive"],
  ["CCN[C@@H](C)Cc1ccccc1", "inactive"],
  ["O=C1CCCCC1Cl (stereo not given)", "inactive"],
  ["O=[N+]([O-])c1cccc(CCl)c1", "inactive"]
]}

* * *

tested target: Aryl hydrocarbon receptor (Homo sapiens) (UniProt P35869)
Sequence (P35869 whole entry, looked up): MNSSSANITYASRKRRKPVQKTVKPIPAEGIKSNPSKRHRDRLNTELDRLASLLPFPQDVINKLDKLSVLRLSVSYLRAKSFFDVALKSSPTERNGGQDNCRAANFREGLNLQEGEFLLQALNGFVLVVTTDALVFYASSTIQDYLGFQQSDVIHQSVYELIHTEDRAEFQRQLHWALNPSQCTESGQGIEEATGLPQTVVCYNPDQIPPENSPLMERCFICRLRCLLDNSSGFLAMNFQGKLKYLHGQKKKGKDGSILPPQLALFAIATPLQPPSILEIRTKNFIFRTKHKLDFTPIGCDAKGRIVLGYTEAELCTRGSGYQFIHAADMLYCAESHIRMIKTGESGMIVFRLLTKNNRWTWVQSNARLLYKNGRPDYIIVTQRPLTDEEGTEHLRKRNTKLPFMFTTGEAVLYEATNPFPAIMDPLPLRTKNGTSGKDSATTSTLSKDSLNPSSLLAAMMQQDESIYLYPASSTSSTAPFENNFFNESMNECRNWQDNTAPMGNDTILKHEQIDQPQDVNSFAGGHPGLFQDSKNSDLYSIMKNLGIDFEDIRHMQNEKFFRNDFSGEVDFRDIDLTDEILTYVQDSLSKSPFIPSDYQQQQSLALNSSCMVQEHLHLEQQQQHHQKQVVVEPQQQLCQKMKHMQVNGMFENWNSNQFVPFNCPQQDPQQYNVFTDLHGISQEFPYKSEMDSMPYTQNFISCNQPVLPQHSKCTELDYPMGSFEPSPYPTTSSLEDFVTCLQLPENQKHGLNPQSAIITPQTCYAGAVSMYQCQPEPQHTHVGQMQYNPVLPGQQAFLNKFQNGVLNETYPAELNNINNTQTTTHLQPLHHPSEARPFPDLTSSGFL
assay text: qHTS assay to identify small molecule that activate the aryl hydrocarbon receptor (AhR) signaling pathway (AID 743085); also: nearly all actives have a fitted effect of over 15% in size;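 as to activation: HG2L7.5c1 human HepG2 liver cells with stably integrated DRE-driven firefly reporter; % is scaled to controls: 0 for no effect and ±100 for the full control effect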
setup conditions: HepG2 AhR-luc (HG2L7.5c1), luciferase, 24 h; series mostly up to 70.3 µM
Source text: U.S. Tox21 Program National Center for Advancing Translational Sciences [NCATS] NIH Chemical Genomics Center [NCGC] U.S. Environmental Protection Agency [EPA] National Institutes of Environmental Health Sciences [NIEHS] National Toxicology Program [NTP] U.S. Food and Drug Administration [FDA] Tox21 Assay overview: The Aryl hydrocarbon Receptor (AhR), a member of the family of basic helix-loop-helix transcription factors, is crucial to adaptive responses to environmental changes. […]
Results filed as inconclusive are left out. Calls of active or inactive are those of the source. Calls follow the shape of the dose curve; as a rule, active = well fitted activation curve with a large enough effect in the repeat runs; inconclusive = weak or mixed curves; inactive = no such curve, though single readings can be large or run the other way.
Outcome codes: T = active, F = inactive

{"columns": ["compound", "category label"],
 "data": [
  ["CCCC(C)C1(CC)C(=O)N=C(S)NC1=O (stereo not given)", "F"],
  ["C[C@@H](N)[C@@H](O)c1ccccc1", "F"],
  ["Cc1cc(OC(=O)N(C)C)nn1C(=O)N(C)C", "F"],
  ["CCCCCCCC(=O)Cl", "F"],
  ["O=C(O)C(Cl)Br (stereo not given)", "F"],
  ["C=C(C)[C@H]1CN[C@H](C(=O)O)[C@H]1CC(=O)O", "F"],
  ["COP(=O)(OC)O/C(C)=C/C(=O)N(C)C", "F"],
  ["Cn1c(CCCC(=O)O)nc2cc(N(CCCl)CCCl)ccc21", "F"],
  ["CCC(=O)OC1(c2ccccc2)CCN(C)CC1", "F"],
  ["ClCCCCCCCl", "F"],
  ["CCOP(=O)(CN(CCO)CCO)OCC", "F"],
  ["CCOP(=S)(OCC)Oc1ccc(Cl)cc1Cl", "T"],
  ["O=C(O)CBr", "F"],
  ["O=C(CCl)NCO", "F"],
  ["CC1=C2[C@H]3OC(=O)[C@@H](C)[C@@H]3CC[C@@]2(C)C=CC1=O", "F"],
  ["S=C=S", "F"],
  ["CC(C)(C1CCC(O)CC1)C1CCC(O)CC1 (stereo not given)", "F"],
  ["Oc1ccc2c3c1O[C@H]1[C@@H](O)C=C[C@H]4[C@@H](C2)NCC[C@@]341", "F"],
  ["N[C@@H](Cc1ccc(Oc2cc(I)c(O)c(I)c2)c(I)c1)C(=O)O", "F"],
  ["O=[N+]([O-])CCO", "F"],
  ["C=CC=O", "F"],
  ["CC(C)(C)c1cc(O)ccc1O", "T"],
  ["C[C@H](N)C(=O)c1ccccc1", "F"],
  ["N#CN", "F"],
  ["CC[C@H](O)C(C[C@H](C)N(C)C)(c1ccccc1)c1ccccc1", "F"]
]}

All values here come from PubChem BioAssay (Tox21).
